compound: CCOc1ccc(OC)c2c1CCC=C2
melting point: 59 to 60 °C
//
compound: CC1(C)c2ccccc2C(C)(C)C1(CC#N)SN=O
melting point: 67 to 69 °C
//
compound: CCc1nc2c(C)c(S(=O)(=O)N(C)C)c(C)nc2[nH]1
melting point: 179 to 182 °C
//
compound: COc1ccc(-c2n[nH]c(N=CN(C)C)c2C#N)cc1
melting point: 169 to 171 °C
//
compound: CC(C)CC12CCC3C4CCC(=O)C=C4CCC3C1CCC2OC(=O)CCc1ccccc1 (stereo unspecified)
melting point: 101 to 106 °C
//
compound: CCOC(=O)C1=C(C)N=C(SCc2ccc(OC)cc2)N(C(=O)OCC)C1c1cccc(C#N)c1 (stereo unspecified)
melting point: 85 to 87 °C
//
compound: Cc1cc(-n2c(C)nc3ccccc32)ccc1[N+](=O)[O-]
melting point: 144 to 146 °C
//
compound: Fc1cc(F)cc(N2c3ccccc3Sc3ccccc32)c1
melting point: 111 to 115 °C
//
compound: Cn1nnnc1S(=O)(=O)CCCCS(=O)(=O)c1nnnn1C
melting point: 192 to 194 °C
//
compound: CCOC(=O)CNC(=O)c1nc2ccc(NCCCN3CCC(OC(c4ccccc4)c4ccccc4)CC3)nn2c1Cl
melting point: 178 to 180 °C
//
compound: O=Cc1cc(Br)c(C=O)cc1Br
melting point: 184 to 189 °C
